targetOrTestSystem: T1, IL-23 receptor on the surface of HEK-Blue IL-23 cells (UniProt Q5VWK5 24-629, limits assumed)
T1 sequence (looked up): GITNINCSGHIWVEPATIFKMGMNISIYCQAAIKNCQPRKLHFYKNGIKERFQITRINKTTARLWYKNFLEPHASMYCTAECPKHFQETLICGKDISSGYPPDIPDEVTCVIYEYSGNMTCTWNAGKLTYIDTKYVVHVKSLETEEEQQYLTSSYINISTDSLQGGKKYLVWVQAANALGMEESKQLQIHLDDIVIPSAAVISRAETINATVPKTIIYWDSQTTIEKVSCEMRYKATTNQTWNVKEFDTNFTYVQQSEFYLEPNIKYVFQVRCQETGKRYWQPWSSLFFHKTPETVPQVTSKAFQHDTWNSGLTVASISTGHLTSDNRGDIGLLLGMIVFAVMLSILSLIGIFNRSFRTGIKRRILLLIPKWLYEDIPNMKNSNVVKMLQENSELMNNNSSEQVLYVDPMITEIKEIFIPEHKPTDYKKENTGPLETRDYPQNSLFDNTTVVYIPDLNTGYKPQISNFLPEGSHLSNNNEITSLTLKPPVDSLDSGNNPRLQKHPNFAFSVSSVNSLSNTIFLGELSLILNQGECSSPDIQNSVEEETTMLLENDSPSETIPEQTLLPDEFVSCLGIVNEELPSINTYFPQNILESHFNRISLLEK
testProtocol: cell-based or functional assay
Starred links: 1 amine or outer side, 2 acyl side, 3 side chain; linkers in the order of their positions; H or OH if unused. Positions of bridges follow the written chain, without caps; N, C: chain ends. Non-standard residues stand in square brackets, D forms with d. Yde = (2S)-2-amino-3-[4-[2-(dimethylamino)ethoxy]phenyl]propanoic acid, CN(C)CCOc1ccc(C[C@H](N[*:1])C(=O)[*:2])cc1; Trp(7-Me) = Cc1cccc2c(C[C@H](N)C(=O)O)c[nH]c12; 2Nal = N[C@@H](Cc1ccc2ccccc2c1)C(=O)O; 3Pal = N[C@@H](Cc1cccnc1)C(=O)O; αMeL = CC(C)C[C@](C)(N)C(=O)O; Aib = CC(C)(N)C(=O)O; Ava = NCCCCC(=O)O; Sar = CNCC(=O)O
The following binders are listed with their measured pSTAT3 (nM) values.
Report the figure in nM without appending any unit label.

[Ava]CNTWQC[Yde][2Nal][Aib]ENNI-NH2 (lactam N-11; disulfide 2-7; SMILES CC[C@H](C)[C@H](NC(=O)[C@H](CC(N)=O)NC(=O)[C@H](CC(N)=O)NC(=O)[C@@H]1CCC(=O)NCCCCC(=O)N[C@H]2CSSC[C@H](NC(=O)[C@H](CCC(N)=O)NC(=O)[C@H](Cc3c[nH]c4ccccc34)NC(=O)[C@H]([C@@H](C)O)NC(=O)[C@H](CC(N)=O)NC2=O)C(=O)N[C@@H](Cc2ccc(OCCN(C)C)cc2)C(=O)N[C@@H](Cc2ccc3ccccc3c2)C(=O)NC(C)(C)C(=O)N1)C(N)=O, §1 lactam bridge; @2 disulfide bridge) [Compound of SEQ ID NO: 57] : 5.5

// moving on: another record for pSTAT3 (nM)
Output measured pSTAT3 (nM) for this item: [Ava]CNT[Trp(7-Me)]K(Ac)C[Yde][2Nal][αMeL]EN[3Pal][Sar]-NH2 (lactam N-11; disulfide 2-7; SMILES CC(=O)NCCCC[C@@H]1NC(=O)[C@H](Cc2c[nH]c3c(C)cccc23)NC(=O)[C@H]([C@@H](C)O)NC(=O)[C@H](CC(N)=O)NC(=O)[C@@H]2CSSC[C@H](NC1=O)C(=O)N[C@@H](Cc1ccc(OCCN(C)C)cc1)C(=O)N[C@@H](Cc1ccc3ccccc3c1)C(=O)N[C@@](C)(CC(C)C)C(=O)N[C@H](C(=O)N[C@@H](CC(N)=O)C(=O)N[C@@H](Cc1cccnc1)C(=O)N(C)CC(N)=O)CCC(=O)NCCCCC(=O)N2) [Compound of SEQ ID NO: 65]
0.23
